# experimental target: human recombinant H-PGDS (Homo sapiens)
# protocol: Fluorescence intensity h-PGDS TBA enzyme assay (PGH2 depletion, MDA/TBA fluorescence)
# Type: biochemical
# cond: 1:175,000 human recombinant H-PGDS, 42 second reaction, 3-fold serial dilutions, highest concentration typically 1 μM
pIC50: −log10 of the molar value.
property measured: pIC50

Solved cases (4 shown):
- CNC(=O)OC(C)(C)[C@H]1CC[C@H](NC(=O)c2ccc(-c3cccc(F)c3)nc2)CC1 [Example 229]: 8.60
- CC(C)(O)[C@@H]1CCC[C@H](NC(=O)c2ccc(-c3cccc(F)c3)nc2)C1 (relative stereo) [Example 262]: 7.09
- O=C(N[C@@H]1CC[C@H](C(=O)N2CCOCC2)C1)c1ccc(-c2cccc(F)c2)nc1 [Example 179]: 8.25
- CNC(=O)N[C@H]1CC[C@@H](NC(=O)c2ccc(-c3cccc(F)c3)nc2)CC1 [Example 236]: 8.24

a = CC(C)(O)CNC(=O)[C@@H]1CCC[C@H](NC(=O)c2ccc(-c3cccc(F)c3)nc2)C1 (stereo in doubt) [Example 195]
b = CC(C)(CCO)NC(=O)[C@@H]1CC[C@H](NC(=O)c2ccc(-c3cccc(F)c3)nc2)C1 [Example 172]
c = NC(=O)[C@@H]1CC[C@H](NC(=O)c2ccc(-c3cccc(F)c3)nc2)C1 [Example 175]
d = O=C(NC1CCC(F)(F)CC1)c1ccc(-c2cccc(F)c2)nc1 [Example 119]
Order each entry by recorded pIC50, climbing from the minimum. When ranking, write the labels in the order the request describes.
c, a, b, d
(c: 7.69, a: 7.93, b: 8.19, d: 8.89)

* * *

# experimental target: human recombinant H-PGDS (Homo sapiens, UniProt O60760)
# Sequence (O60760 whole entry): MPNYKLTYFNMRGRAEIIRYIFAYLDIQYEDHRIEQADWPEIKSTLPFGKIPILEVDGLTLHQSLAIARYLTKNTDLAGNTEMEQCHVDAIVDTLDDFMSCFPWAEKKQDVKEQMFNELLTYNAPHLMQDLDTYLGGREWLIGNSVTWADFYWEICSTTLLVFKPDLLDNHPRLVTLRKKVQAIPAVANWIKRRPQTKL
# protocol: Fluorescence intensity h-PGDS TBA enzyme assay (PGH2 depletion, MDA/TBA fluorescence)
# Format: biochemical
# cond: 1:175,000 human recombinant H-PGDS, 42 second reaction, 3-fold serial dilutions, highest concentration typically 1 μM
property measured: IC50 (nM)

In the examples that follow, each entry is paired with its recorded IC50.
• COc1cccc(-c2ccc(C(=O)NC3CCCCC3)cn2)c1 [Example 20] = 105
• O=C(N[C@H]1CC[C@@H](C(=O)N2CCNCC2)C1)c1ccc(-c2cccc(F)c2)nc1 [Example 176] = 9
• CN1CCN(C(=O)C[C@H]2CC[C@@H](NC(=O)c3ccc(-c4cccc(F)c4)nc3)CC2)CC1 [Example 274] = 13.7
• CN1CCC(NC(=O)[C@@H]2CC[C@H](NC(=O)c3ccc(-c4cccc(F)c4)nc3)C2)CC1 [Example 174] = 1860
• CS(=O)(=O)NC[C@H]1CC[C@H](NC(=O)c2ccc(-c3cccc(F)c3)nc2)CC1 [Example 150] = 8.9
• Cc1cccc(-c2ccc(C(=O)NC3CCCCC3)cn2)c1 [Example 19] = 10.2

1 = O=C(NC1CCC(O)(CO)CC1)c1ccc(-c2cccc(F)c2)nc1 (centres unmarked) [Example 227]
2 = CN(C)C(=O)[C@@]1(C)CCC[C@@H](NC(=O)c2ccc(-c3cccc(F)c3)nc2)C1 (relative stereo) [Example 237]
In the pair 1 and 2 , the larger recorded IC50 belongs to which? Answer = label.
1
(1: 23.8 nM, 2: 5.1 nM)

* * *

# experimental target: human recombinant H-PGDS (Homo sapiens, UniProt O60760)
# protocol: Fluorescence intensity h-PGDS TBA enzyme assay (PGH2 depletion, MDA/TBA fluorescence)
# Type: biochemical
# cond: 1:175,000 human recombinant H-PGDS, 42 second reaction, 3-fold serial dilutions, highest concentration typically 1 μM
pIC50: −log10 of the molar value.
property measured: pIC50

* O=C(N[C@H]1CC[C@@H](C(=O)NC2CC2)C1)c1ccc(-c2cccc(F)c2)nc1 | 7.95

A = O=C(N[C@@H]1CC[C@H](C(=O)N2CCN(CCO)CC2)C1)c1ccc(-c2cccc(F)c2)nc1
B = CCN1CCN(C(=O)C2(C#N)CCCC(NC(=O)c3ccc(-c4cccc(F)c4)nc3)C2)CC1 (centres unmarked)
Pick one: A or B . Which has the bigger pIC50 number? Label of pick, please.
B

1 = COCCNC(=O)[C@H]1CC[C@@H](NC(=O)c2ccc(-c3cccc(F)c3)nc2)C1
2 = CC(C)n1ncc2c1CCCC2NC(=O)c1ccc(-c2cccc(F)c2)nc1 (centres unmarked)
Problem: Given the entries 1 and 2 , determine which has the lower reported pIC50. State the label of the item chosen.
2

* * *

# experimental target: human recombinant H-PGDS (Homo sapiens, UniProt O60760)
# protocol: Slightly modified fluorescence intensity h-PGDS TBA enzyme assay (1:40,000 enzyme, 40 second reaction, 1/2 log dilutions, top concentration typically 10 μM)
# Assay type: biochemical
# cond: slightly modified assay: 1:40,000 human recombinant H-PGDS
property measured: IC50 (µM)

• CC(=O)NC1CCC(NC(=O)c2ccc(-c3cccc(F)c3)nc2)CC1 (stereo not shown) = 0.0107
• CN(C)C(=O)[C@H]1CCC[C@@H](NC(=O)c2ccc(-c3cccc(F)c3)nc2)C1 (relative stereo) = 0.0108

I = C[C@@H]1CN(C(=O)[C@H]2CC[C@H](NC(=O)c3ccc(-c4cccc(F)c4)nc3)CC2)CCN1
II = O=C(NC1CCC(N2CC[C@@H](O)C2)CC1)c1ccc(-c2cccc(F)c2)nc1 (single isomer, unassigned) [Example 60]
III = O=C(NC1CCC(c2ncc[nH]2)CC1)c1ccc(-c2cccc(F)c2)nc1 (single isomer, unassigned) [Example 64]
Order the entries by their reported IC50, beginning at the minimum. State the ranking by listing the labels in the requested order.
III, I, II
(III: 0.0062 µM, I: 0.00974 µM, II: 0.111 µM)

* * *

# experimental target: human recombinant H-PGDS (Homo sapiens)
# protocol: Fluorescence intensity h-PGDS TBA enzyme assay (PGH2 depletion, MDA/TBA fluorescence)
# Type: biochemical
# cond: 1:175,000 human recombinant H-PGDS, 42 second reaction, 3-fold serial dilutions, highest concentration typically 1 μM
pIC50: −log10 of the molar value.
property measured: pIC50

* O=C(N[C@@H]1CCCC[C@@H]1CO)c1ccc(-c2cccc(F)c2)nc1 [Example 24] | 7.70
* CC(C)(O)C(=O)N[C@H]1CC[C@H](NC(=O)c2ccc(-c3cccc(F)c3)nc2)CC1 [Example 143] | 8.14
* N#CC1(C(=O)N2CCOCC2)CCCC(NC(=O)c2ccc(-c3cccc(F)c3)nc2)C1 (stereo not shown) [Example 265] | 8.55

I = O=C(NC1CCCC1)c1ccc(-c2cccc(F)c2)nc1 [Example 9]
II = O=C(N[C@H]1CC[C@@H](C(=O)N2CCN(CCO)CC2)C1)c1ccc(-c2cccc(F)c2)nc1 [Example 156]
In terms of reported pIC50, does I or II have the smaller number? Could you answer with the label of the item you picked?
II

A = O=C(N[C@@H]1CCC[C@H](CN2CCC2)C1)c1ccc(-c2cccc(F)c2)nc1 (relative stereo) [Example 258]
B = O=C(N[C@@H]1CC[C@H](C(=O)N2CC[C@H](F)C2)C1)c1ccc(-c2cccc(F)c2)nc1 [Example 181]
Looking only at measured pIC50, which entry is lower, A or B ? Output the label that corresponds to your choice.
A

1 = CN(C)C(=O)C1(C#N)CCCC(NC(=O)c2ccc(-c3cccc(F)c3)nc2)C1 (stereo not shown) [Example 266]
2 = CN(C)C(=O)CNC(=O)[C@H]1CCC[C@@H](NC(=O)c2ccc(-c3cccc(F)c3)nc2)C1 (relative stereo) [Example 198]
3 = O=C(N[C@H]1CC[C@H]([C@H](O)C2CC2)CC1)c1ccc(-c2cccc(F)c2)nc1 [Example 212]
4 = COC(=O)C1(NC(=O)c2ccc(-c3cccc(F)c3)nc2)CC1 [Example 2]
Sort low-to-high on pIC50, please. Reply format: the labels, ordered as requested.
4, 2, 1, 3

a = O=C(N[C@@H]1CCC[C@@H](C(=O)N2CCNCC2)C1)c1ccc(-c2cccc(F)c2)nc1 (relative stereo) [Example 243]
b = CS(=O)(=O)N[C@H]1CCC[C@H](NC(=O)c2ccc(-c3cccc(F)c3)nc2)C1 (relative stereo) [Example 249]
Pick one: a or b . Which has the bigger pIC50 number? Bench note: the answer is the label of the chosen record.
b
(b: 7.86, a: 7.54)

* * *

# experimental target: human recombinant H-PGDS (Homo sapiens)
# protocol: Fluorescence intensity h-PGDS TBA enzyme assay (PGH2 depletion, MDA/TBA fluorescence)
# Assay type: biochemical
# cond: 1:175,000 human recombinant H-PGDS, 42 second reaction, 3-fold serial dilutions, highest concentration typically 1 μM
property measured: IC50 (nM)

Previously resolved entries follow.
- O=C(CO)N[C@@H]1CCC[C@H](NC(=O)c2ccc(-c3cccc(F)c3)nc2)C1 (relative stereo) [Example 202]: 17.1
- CN(C)C(=O)[C@@H]1CC[C@H](NC(=O)c2ccc(-c3cccc(F)c3)nc2)C1 [Example 163]: 6.1
- CC[C@@H](O)C(=O)N[C@H]1CC[C@H](NC(=O)c2ccc(-c3cccc(F)c3)nc2)CC1 [Example 113J]: 6.6
- O=C(NC1CCC(O)(C(F)(F)F)CC1)c1ccc(-c2cccc(F)c2)nc1 (mixture of isomers) [Example 151]: 10.3
- CC(C)OCC1(O)CCC(NC(=O)c2ccc(-c3cccc(F)c3)nc2)CC1 (stereo not shown) [Example 226]: 13.2

I = N[C@H]1CC[C@H](NC(=O)c2ccc(-c3cccc(F)c3)nc2)CC1 [Example 142B]
II = O=C(N[C@H]1CC[C@H](C(=O)N[C@@H]2CCOC2)CC1)c1ccc(-c2cccc(F)c2)nc1 [Example 113E]
Would you let me know which has the greater IC50 value, I or II ? Your answer should be the label attached to the chosen record.
I
(I: 16.4 nM, II: 8.8 nM)

The origin of these recorded values is patent US20100173888A1.
